Sourced from patent US11279733B2

Test Description: in vitro
Measurement Conditions: human
Positions of bridges follow the written chain, without caps; N, C: chain ends. Non-standard residues stand in square brackets, D forms with d. Residues, ends and D or L forms follow the SMILES beside them. *: point of attachment. Cholyl = C[C@H](CCC(=O)*)[C@H]1CC[C@H]2[C@@H]3[C@H](O)C[C@@H]4C[C@H](O)CC[C@]4(C)[C@H]3C[C@H](O)[C@]12C; Decanoyl(3R-OH) = CCCCCCC[C@@H](O)CC(=O)*; Butanoyl(4-OPh) = O=C(CCCOc1ccccc1)*; X1 = CCCCCCCN1CCC(C(=O)*)CC1; dDab = NCC[C@@H](N)C(=O)O; Dab = NCC[C@H](N)C(=O)O
Outcome Measure: CC50 at 24 h (µM)
Report only the number, with the unit µM understood.

• CCCCCCC[C@@H](O)CC(=O)N[C@H](CO)C(=O)N[C@H]1CCNC(=O)[C@H]([C@@H](C)O)NC(=O)[C@H](CCN)NC(=O)[C@H](CCN)NC(=O)[C@H](CC(C)C)NC(=O)[C@@H](Cc2ccccc2)NC(=O)[C@H](CCN)NC1=O [compound 754] ({Decanoyl(3R-OH)}-[dS][Dab][Dab][dF]L[Dab][Dab]T; lactam 2-C) = 154
• CCCCCCC[C@@H](O)CC(=O)N[C@H](C)C(=O)N[C@H]1CCNC(=O)[C@H](CC(C)C)NC(=O)[C@H](CCN)NC(=O)[C@H](CCN)NC(=O)[C@H](CC(C)C)NC(=O)[C@@H](Cc2ccccc2)NC(=O)[C@H](CCN)NC1=O [compound 4951] ({Decanoyl(3R-OH)}-[dA][Dab][Dab][dF]L[Dab][Dab]L; lactam 2-C) = 120
• CCCCCCC[C@@H](O)CC(=O)N[C@H](CCN)C(=O)N[C@H]1CCNC(=O)[C@H]([C@@H](C)O)NC(=O)[C@H](CCCNC(=N)N)NC(=O)[C@H](CCN)NC(=O)[C@H](CC(C)C)NC(=O)[C@@H](Cc2ccccc2)NC(=O)[C@H](CCN)NC1=O [compound 5606] ({Decanoyl(3R-OH)}-[dDab][Dab][Dab][dF]L[Dab]RT; lactam 2-C) = 137
• CCCCCCC[C@@H](O)CC(=O)N[C@H](CCN)C(=O)N[C@H]1CCNC(=O)[C@H](CC(C)C)NC(=O)[C@H](CCNC(=O)[C@@H](N)CCCNC(=N)N)NC(=O)[C@H](CCN)NC(=O)[C@H](CC(C)C)NC(=O)[C@@H](Cc2ccccc2)NC(=O)[C@H](CCN)NC1=O [compound 6653] ({Decanoyl(3R-OH)}-[dDab][Dab][Dab][dF]L[Dab][Dab](Arg)L; lactam 2-C) = 64
• CCCCCCC[C@@H](O)CC(=O)N[C@H](CCN)C(=O)N[C@H]1CCNC(=O)[C@H](CC(C)C)NC(=O)[C@H](CCN)NC(=O)[C@H](CCN)NC(=O)[C@H](CC(C)C)NC(=O)[C@@H](Cc2ccc(O)cc2)NC(=O)[C@H](CCN)NC1=O [compound 5008] ({Decanoyl(3R-OH)}-[dDab][Dab][Dab][dY]L[Dab][Dab]L; lactam 2-C) = 106
• CCCCCCC[C@@H](O)CC(=O)N[C@H](CCN)C(=O)N[C@H]1CCNC(=O)[C@H](Cc2ccccc2)NC(=O)[C@H](CCN)NC(=O)[C@H](CCN)NC(=O)[C@H](CC(C)C)NC(=O)[C@@H](Cc2ccccc2)NC(=O)[C@H](CCN)NC1=O [compound 5004] ({Decanoyl(3R-OH)}-[dDab][Dab][Dab][dF]L[Dab][Dab]F; lactam 2-C) = 23

State the recorded CC50 at 24 h for this entry: CC(C)C[C@@H]1NC(=O)[C@H](CCN)NC(=O)[C@H](CCN)NC(=O)[C@H](CC(C)C)NC(=O)[C@@H](Cc2ccccc2)NC(=O)[C@H](CCN)NC(=O)[C@@H](NC(=O)[C@@H](CCN)NC(=O)CC[C@@H](C)[C@H]2CC[C@H]3[C@@H]4[C@H](O)C[C@@H]5C[C@H](O)CC[C@]5(C)[C@H]4C[C@H](O)[C@]23C)CCNC1=O [compound 5016] (Cholyl-[dDab][Dab][Dab][dF]L[Dab][Dab]L; lactam 2-C)
17

State the recorded CC50 at 24 h for this entry: CC(C)C[C@@H]1NC(=O)[C@H](CCN)NC(=O)[C@H](CCN)NC(=O)[C@H](CC(C)C)NC(=O)[C@@H](Cc2ccccc2)NC(=O)[C@H](CCN)NC(=O)[C@@H](NC(=O)[C@@H](CCN)NC(=O)CCCOc2ccccc2)CCNC1=O [compound 6529] ({Butanoyl(4-OPh)}-[dDab][Dab][Dab][dF]L[Dab][Dab]L; lactam 2-C)
199

State the recorded CC50 at 24 h for this entry: CCCCCCCN1CCC(C(=O)N[C@H](CCN)C(=O)N[C@H]2CCNC(=O)[C@H](CC(C)C)NC(=O)[C@H](CCN)NC(=O)[C@H](CCN)NC(=O)[C@H](Cc3ccccc3)NC(=O)[C@@H](CC(C)C)NC(=O)[C@H](CCN)NC2=O)CC1 [compound 6516] (X1-[dDab][Dab][Dab][dL]F[Dab][Dab]L; lactam 2-C)
223

State the recorded CC50 at 24 h for this entry: CCCCCCCN1CCC(C(=O)N[C@H](CCN)C(=O)N[C@H]2CCNC(=O)[C@H](CC(C)C)NC(=O)[C@H](CCN)NC(=O)[C@H](CCN)NC(=O)[C@H](CC(C)C)NC(=O)[C@@H](Cc3ccccc3)NC(=O)[C@H](CCN)NC2=O)CC1 [compound 6524] (X1-[dDab][Dab][Dab][dF]L[Dab][Dab]L; lactam 2-C)
106

---

Test Description: In vitro nephrotoxicity, GGT release from primary human kidney cells
Type: cell-based
Measurement Conditions: pH 7.4
Positions of bridges follow the written chain, without caps; N, C: chain ends. Non-standard residues stand in square brackets, D forms with d. Residues, ends and D or L forms follow the SMILES beside them. *: point of attachment. Decanoyl(3R-OH) = CCCCCCC[C@@H](O)CC(=O)*; dBip = N[C@H](Cc1ccc(-c2ccccc2)cc1)C(=O)O; dDab = NCC[C@@H](N)C(=O)O; dDap = NC[C@@H](N)C(=O)O; Dab = NCC[C@H](N)C(=O)O; Dap = NC[C@H](N)C(=O)O
Outcome Measure: CC50

• CCCCCCC[C@@H](O)CC(=O)N[C@H](CN)C(=O)N[C@H]1CCNC(=O)[C@H](CC(C)C)NC(=O)[C@H](CCN)NC(=O)[C@H](CCN)NC(=O)[C@H](CC(C)C)NC(=O)[C@@H](Cc2ccccc2)NC(=O)[C@H](CCN)NC1=O [compound 6442] ({Decanoyl(3R-OH)}-[dDap][Dab][Dab][dF]L[Dab][Dab]L; lactam 2-C) = > 128 µg/mL
• CCCCCCC[C@@H](O)CC(=O)N[C@H](CCN)C(=O)N[C@H]1CCNC(=O)[C@H](CC(C)C)NC(=O)[C@H](CN)NC(=O)[C@H](CCN)NC(=O)[C@H](CC(C)C)NC(=O)[C@@H](Cc2ccc(-c3ccccc3)cc2)NC(=O)[C@H](CCN)NC1=O [compound 5383] ({Decanoyl(3R-OH)}-[dDab][Dab][Dab][dBip]L[Dab][Dap]L; lactam 2-C) = > 128 µg/mL

Next item in the queue.
State the recorded CC50 for this entry: CCCCCCC[C@@H](O)CC(=O)N[C@@H](CCN)C(=O)N[C@H]1CCNC(=O)[C@H](CC(C)C)NC(=O)[C@H](CCN)NC(=O)[C@H](CCN)NC(=O)[C@H](CC(C)C)NC(=O)[C@@H](Cc2ccccc2)NC(=O)[C@H](CCN)NC1=O [compound 8638] ({Decanoyl(3R-OH)}-[Dab][Dab][Dab][dF]L[Dab][Dab]L; lactam 2-C)
> 128 µg/mL

---

Listing of recorded CC50 at 24 h by entry.
Test Description: in vitro
Measurement Conditions: human
Positions of bridges follow the written chain, without caps; N, C: chain ends. Non-standard residues stand in square brackets, D forms with d. Residues, ends and D or L forms follow the SMILES beside them. *: point of attachment. Decanoyl(3R-OH) = CCCCCCC[C@@H](O)CC(=O)*; dDab = NCC[C@@H](N)C(=O)O; dDap = NC[C@@H](N)C(=O)O; Dab = NCC[C@H](N)C(=O)O

State the recorded CC50 at 24 h for this entry: CCCCCCC[C@@H](O)CC(=O)N[C@H](CN)C(=O)N[C@H]1CCNC(=O)[C@H](CC(C)C)NC(=O)[C@H](CCN)NC(=O)[C@H](CCN)NC(=O)[C@H]([C@@H](C)O)NC(=O)[C@@H](Cc2ccccc2)NC(=O)[C@H](CCN)NC1=O [compound 9295] ({Decanoyl(3R-OH)}-[dDap][Dab][Dab][dF]T[Dab][Dab]L; lactam 2-C)
> 300 µM

State the recorded CC50 at 24 h for this entry: CCCCCCC[C@@H](O)CC(=O)N[C@H](CCN)C(=O)N[C@H]1CCNC(=O)[C@H](CC(C)C)NC(=O)[C@H](CCCCN)NC(=O)[C@H](CCN)NC(=O)[C@H](CC(C)C)NC(=O)[C@@H](Cc2ccccc2)NC(=O)[C@H](CCN)NC1=O [compound 989] ({Decanoyl(3R-OH)}-[dDab][Dab][Dab][dF]L[Dab]KL; lactam 2-C)
> 300 µM

State the recorded CC50 at 24 h for this entry: CCCCCCC[C@@H](O)CC(=O)N[C@@H](CCN)C(=O)N[C@@H]1CCNC(=O)[C@H](CC(C)C)NC(=O)[C@H](CCN)NC(=O)[C@H](CCN)NC(=O)[C@H](CC(C)C)NC(=O)[C@@H](Cc2ccccc2)NC(=O)[C@H](CCN)NC1=O [compound 6658] ({Decanoyl(3R-OH)}-[Dab][dDab][Dab][dF]L[Dab][Dab]L; lactam 2-C)
> 300 µM
